Measured logD, listed per entry.
Assay: Octanol-water distribution coefficient, log D at pH 7.4
Type: physicochemical
Field format: numeric only.

Measured logD, C[C@@H]1NC(c2cnccn2)=N[C@@]1(c1ccc(F)cc1)c1ccc(F)nc1 : 2.5

Measured logD, C[C@@H]1NC(c2cncc(C#N)c2)=N[C@@]1(c1ccc(F)cc1)c1ccc(F)nc1 : 2.9

Measured logD, C[C@@H]1NC(c2cccc(S(C)(=O)=O)c2)=N[C@@]1(c1ccc(F)cc1)c1ccc(F)nc1 : 2.9

Measured logD, C[C@@H]1NC(c2nccc(C#N)n2)=N[C@@]1(c1ccc(F)cc1)c1ccc(F)nc1 : 2.2

Measured logD, C[C@@H]1NC(c2cnsn2)=N[C@@]1(c1ccc(F)cc1)c1ccc(F)nc1 : 3.1

Further cases:
Measured logD, C[C@@H]1NC(c2cc(Cl)ccn2)=N[C@@]1(c1ccc(F)cc1)c1ccc(F)nc1 : 3.8

Measured logD, C[C@@H]1NC(c2cccc(C#N)n2)=N[C@@]1(c1ccc(F)cc1)c1ccc(F)nc1 : 3.3

Measured logD, C[C@@H]1NC(c2cc(C(N)=O)ccn2)=N[C@@]1(c1ccc(F)cc1)c1ccc(F)nc1 : 2.4

---

Assay: Octanol-water distribution coefficient, log D at pH 7.4
Assay type: physicochemical
Measured logD, listed per entry.
Field format: numeric only.

Reference set (4 entries):
Measured logD, N#Cc1ccnc(C2=NC(c3ccc(F)cc3)(c3ccc(F)cc3)[C@H](CO)N2)c1 : 3.4

Measured logD, COc1ccnc(C2=N[C@@](c3ccc(F)cc3)(c3ccc(F)nc3)[C@H](C)N2)c1 : 3.6

Measured logD, N#Cc1ccnc(C2=NC(c3ccc(F)cc3)(c3ccc(F)cc3)CN2)c1 : 4

Measured logD, C[C@@H]1NC(c2cccc(C#N)c2)=N[C@@]1(c1ccc(F)cc1)c1ccc(F)nc1 : 3.6

Okay, now this molecule:
Measured logD, C[C@@H]1NC(c2cnccn2)=NC1(c1ccc(F)cc1)c1ccc(F)cc1 : 3.7

---

Assay: Cmax in Beagle dog at 2 mg/kg, iv
Type: ADME, organism-based, Canis lupus familiaris
Parameters: dose 2 mg/kg, route intravenous
Conditions: in vivo
Property measured: Cmax

Measured Cmax, C[C@@H]1NC(c2cc(C#N)ccn2)=N[C@@]1(c1ccc(F)cc1)c1ccc(F)nc1 : 12 µM

---

Experiment: Volume of distribution at steady state in Sprague-Dawley rat at 1 mg/kg, iv and 1 mg/kg, po administered as single dose
Assay type: ADME, organism-based
Settings: in vivo, read-out: Vdss
Property measured: Vd (L/kg)
Express your answer in L/kg, writing the number without its unit.

Measured Vd, C[C@@H]1NC(c2cc(C#N)ccn2)=N[C@@]1(c1ccc(F)cc1)c1ccc(F)nc1 : 6.2

---

Measured log10 Ki, listed per entry.
Molecular target: Neuropeptide Y receptor type 5 (Homo sapiens, UniProt Q15761)
Sequence (Q15761 whole entry): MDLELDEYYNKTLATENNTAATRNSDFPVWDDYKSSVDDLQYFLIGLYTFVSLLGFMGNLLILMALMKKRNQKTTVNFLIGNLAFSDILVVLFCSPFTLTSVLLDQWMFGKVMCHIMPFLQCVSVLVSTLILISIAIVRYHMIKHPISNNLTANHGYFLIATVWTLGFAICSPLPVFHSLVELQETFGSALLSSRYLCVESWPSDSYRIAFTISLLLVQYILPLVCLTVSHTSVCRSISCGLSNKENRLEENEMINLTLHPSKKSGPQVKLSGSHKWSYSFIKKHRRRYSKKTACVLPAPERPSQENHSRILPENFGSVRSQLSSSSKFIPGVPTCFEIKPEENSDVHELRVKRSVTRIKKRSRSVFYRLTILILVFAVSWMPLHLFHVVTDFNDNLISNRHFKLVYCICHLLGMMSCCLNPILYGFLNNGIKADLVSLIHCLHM
Experiment: Displacement of [125I]PYY from human recombinant neuropeptide Y5 receptor expressed in mouse LMtk- cells
A value of 2 here means Ki of 100 in nM, since values are log10.

Reference set (3 entries):
Measured log10 Ki, C[C@@H]1NC(c2cccc(S(C)(=O)=O)c2)=N[C@@]1(c1ccc(F)cc1)c1ccc(F)nc1 : 0.40

Measured log10 Ki, C[C@@H]1NC(c2nccs2)=N[C@@]1(c1ccc(F)cc1)c1ccc(F)nc1 : 0.61

Measured log10 Ki, C[C@@H]1NC(c2nccc(C#N)n2)=N[C@@]1(c1ccc(F)cc1)c1ccc(F)nc1 : 0.56

Further cases:
Measured log10 Ki, C[C@@H]1NC(c2cnccn2)=NC1(c1ccc(F)cc1)c1ccc(F)cc1 : 0.28

Measured log10 Ki, C[C@@H]1NC(c2cc(C#N)ccn2)=NC1(c1ccc(F)cc1)c1ccc(F)cc1 : 0.00

Measured log10 Ki, Fc1ccc(C2(c3ccc(F)cc3)CNC(c3cnccn3)=N2)cc1 : 0.63

Measured log10 Ki, C[C@@H]1NC(c2cc(C#N)ccn2)=NC1(c1ccc(F)nc1)c1ccc(F)nc1 : 0.49

Measured log10 Ki, C[C@H]1NC(c2cc(C#N)ccn2)=NC1(c1ccc(F)cc1)c1ccc(F)cc1 : 2.48

---

Test: Metabolic stability in rat hepatocytes assessed as hepatic clearance by serum incubation method
Type: ADME, cell-based, Liver, Hepatocyte
Property measured: CLhep predicted (mL/min/kg)
Express your answer in mL/min/kg, writing the number without its unit.

Reference set (5 entries):
Measured CLhep predicted, C[C@@H]1NC(c2cc(C#N)ccn2)=NC1(c1ccc(F)cc1)c1ccc(F)cc1 : 28

Measured CLhep predicted, C[C@@H]1NC(c2cc(C#N)ccn2)=N[C@@]1(c1ccc(F)cc1)c1ccc(F)nc1 : 18

Measured CLhep predicted, C[C@@H]1NC(c2cc(C#N)ccn2)=N[C@]1(c1ccc(F)cc1)c1ccc(F)nc1 : 56

Measured CLhep predicted, COc1ccnc(C2=N[C@@](c3ccc(F)cc3)(c3ccc(F)nc3)[C@H](C)N2)c1 : 58

Measured CLhep predicted, C[C@@H]1NC(c2cccc(C#N)c2)=N[C@@]1(c1ccc(F)cc1)c1ccc(F)nc1 : 9

Further cases:
Measured CLhep predicted, C[C@@H]1NC(c2cnsn2)=N[C@@]1(c1ccc(F)cc1)c1ccc(F)nc1 : 58

Measured CLhep predicted, C[C@@H]1NC(c2nccc(C#N)n2)=N[C@@]1(c1ccc(F)cc1)c1ccc(F)nc1 : 30

Measured CLhep predicted, N#Cc1ccnc(C2=NC(c3ccc(F)cc3)(c3ccc(F)cc3)CN2)c1 : 12

Measured CLhep predicted, C[C@@H]1NC(c2cc(C(N)=O)ccn2)=N[C@@]1(c1ccc(F)cc1)c1ccc(F)nc1 : 7

Measured CLhep predicted, C[C@@H]1NC(c2cncc(C#N)c2)=N[C@@]1(c1ccc(F)cc1)c1ccc(F)nc1 : 12

Measured CLhep predicted, C[C@@H]1NC(c2cccc(C#N)n2)=N[C@@]1(c1ccc(F)cc1)c1ccc(F)nc1 : 13

Measured CLhep predicted, C[C@@H]1NC(c2cnccn2)=N[C@@]1(c1ccc(F)cc1)c1ccc(F)nc1 : 42

---

Assay: Cmax in Sprague-Dawley rat at 1 mg/kg, iv and 1 mg/kg, po administered as single dose
Assay type: ADME, organism-based
Settings: in vivo
Property measured: Cmax (nM)
Express your answer in nM, writing the number without its unit.

Measured Cmax, C[C@@H]1NC(c2cc(C#N)ccn2)=N[C@@]1(c1ccc(F)cc1)c1ccc(F)nc1 : 500

---

Experiment: Drug level in Sprague-Dawley rat cerebrospinal fluid at 10 mg/kg, po after 2 hrs
Format: ADME, organism-based
Parameters: dose 10 mg/kg, route oral
Settings: Sprague-Dawley, cerebrospinal fluid, read-out: Drug uptake
Returns one of condition met or condition not met; condition met when concentration at 2 h is >= 100 nM.

Below, 3 compounds whose answers are already recorded.
Query string: Would you say C[C@@H]1NC(c2ccnc(C#N)c2)=N[C@@]1(c1ccc(F)cc1)c1ccc(F)nc1 shows concentration at 2 h at minimum 100 nM?
Result string: condition met

Query string: Would you say C[C@@H]1NC(c2cccc(=O)[nH]2)=N[C@@]1(c1ccc(F)cc1)c1ccc(F)nc1 shows concentration at 2 h at minimum 100 nM?
Result string: condition not met

Query string: Would you say C[C@@H]1NC(c2cccc(C#N)c2)=N[C@@]1(c1ccc(F)cc1)c1ccc(F)nc1 shows concentration at 2 h at minimum 100 nM?
Result string: condition met

Further cases:
Query string: Would you say C[C@@H]1NC(c2cncc(C#N)c2)=N[C@@]1(c1ccc(F)cc1)c1ccc(F)nc1 shows concentration at 2 h at minimum 100 nM?
Result string: condition met

Query string: Would you say N#Cc1ccnc(C2=NC(c3ccc(F)cc3)(c3ccc(F)cc3)[C@H](CO)N2)c1 shows concentration at 2 h at minimum 100 nM?
Result string: condition not met

---

Measured Ki, listed per entry.
Molecular target: Neuropeptide Y receptor type 5 (Homo sapiens)
Assay: Displacement of [125I]PYY from human recombinant neuropeptide Y5 receptor expressed in mouse LMtk- cells
Remember to quote the unit after the number.

Note to self: Ki of C[C@@H]1NC(c2cc(C(N)=O)ccn2)=N[C@@]1(c1ccc(F)cc1)c1ccc(F)nc1 with Neuropeptide Y receptor type 5 (Homo sapiens) was 5.1 nM

Note to self: Ki of C[C@@H]1NC(c2cncc(C#N)c2)=N[C@@]1(c1ccc(F)cc1)c1ccc(F)nc1 with Neuropeptide Y receptor type 5 (Homo sapiens) was 3.2 nM

Note to self: Ki of C[C@@H]1NC(c2cc(Cl)ccn2)=N[C@@]1(c1ccc(F)cc1)c1ccc(F)nc1 with Neuropeptide Y receptor type 5 (Homo sapiens) was 1.8 nM

Note to self: Ki of C[C@@H]1NC(c2cnccn2)=N[C@@]1(c1ccc(F)cc1)c1ccc(F)nc1 with Neuropeptide Y receptor type 5 (Homo sapiens) was 2.2 nM

---

Experiment: Ratio of drug level from cerebrospinal fluid to brain in Sprague-Dawley rat at 10 mg/kg, po after 2 hrs
Assay type: ADME, organism-based, CSF/Brain
Design: dose 10 mg/kg, route oral
Settings: in vivo
Returns one of 1 or -1; 1 when Ratio is >= 0.01.

Below, 5 compounds whose answers are already recorded.
Query string: Would you say Fc1ccc(C2(c3ccc(F)cc3)CNC(c3cnccn3)=N2)cc1 shows Ratio at minimum 0.01?
Result string: 1

Query string: Would you say N#Cc1cccc(C2=NC(c3ccc(F)cc3)(c3ccc(F)cc3)CN2)c1 shows Ratio at minimum 0.01?
Result string: -1

Query string: Would you say C[C@@H]1NC(c2ccnc(C#N)c2)=N[C@@]1(c1ccc(F)cc1)c1ccc(F)nc1 shows Ratio at minimum 0.01?
Result string: 1

Query string: Would you say N#Cc1ccnc(C2=NC(c3ccc(F)cc3)(c3ccc(F)cc3)[C@H](CO)N2)c1 shows Ratio at minimum 0.01?
Result string: 1

Query string: Would you say N#Cc1ccnc(C2=NC(c3ccc(F)cc3)(c3ccc(F)cc3)CN2)c1 shows Ratio at minimum 0.01?
Result string: -1

Shifting focus to the compound that follows.
Query string: Would you say C[C@@H]1NC(c2cncc(C#N)c2)=N[C@@]1(c1ccc(F)cc1)c1ccc(F)nc1 shows Ratio at minimum 0.01?
Result string: 1
